- TARGET OR SYSTEM: SGLT2 (sodium-glucose cotransporter 2) (Homo sapiens)
- Sequence (P31639 whole entry): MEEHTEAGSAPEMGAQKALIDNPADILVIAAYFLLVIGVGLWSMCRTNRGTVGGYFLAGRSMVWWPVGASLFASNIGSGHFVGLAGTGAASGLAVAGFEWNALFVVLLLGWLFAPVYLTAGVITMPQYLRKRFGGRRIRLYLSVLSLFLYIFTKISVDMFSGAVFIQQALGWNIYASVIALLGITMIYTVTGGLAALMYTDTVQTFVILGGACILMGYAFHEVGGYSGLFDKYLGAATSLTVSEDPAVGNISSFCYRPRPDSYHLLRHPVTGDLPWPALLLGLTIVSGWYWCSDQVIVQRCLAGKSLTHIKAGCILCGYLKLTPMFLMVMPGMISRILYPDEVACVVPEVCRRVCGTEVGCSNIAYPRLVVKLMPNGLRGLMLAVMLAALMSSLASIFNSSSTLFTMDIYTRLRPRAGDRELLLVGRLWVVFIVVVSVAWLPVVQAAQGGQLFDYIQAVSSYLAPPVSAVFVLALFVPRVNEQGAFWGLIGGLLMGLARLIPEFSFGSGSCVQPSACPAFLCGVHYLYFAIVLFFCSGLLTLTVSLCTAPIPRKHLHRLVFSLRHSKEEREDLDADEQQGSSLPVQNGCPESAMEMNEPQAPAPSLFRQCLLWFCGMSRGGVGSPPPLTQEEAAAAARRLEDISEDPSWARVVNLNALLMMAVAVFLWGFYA
- ASSAY COMMENT: inhibition of […]-alpha-methyl-D-glucopyranoside uptake in HEK293-hSGLT2 cells
REPORTED ENDPOINT: pEC50
Please treat pEC50 as minus the base-10 logarithm of the molar concentration.

Enquiry: Which pEC50 reading was recorded for the molecule OC[C@H]1O[C@@H](c2ccc(Cl)c(Cc3ccc(O[C@H]4CCOC4)cc3)c2)[C@H](O)[C@@H](O)[C@@H]1O ?
Return: 8.37
